The origin of these recorded values is paper PMC10755004.

target.under.test: uridine/uracil transporter 1 (TgUUT1)
method.summary: Transport of 0.1 µM [3H]-uridine into extracellular T. gondii tachyzoites (oil-stop technique)
Type: cell-based, Toxoplasma gondii
experimental.setup: inhibition of 0.1 µM [3H]-uridine transport
pKi: −log10 of the molar value.
measured.metric: pKi

Cc1cn([C@H]2C[C@H](O)[C@@H](CO)O2)c(=O)[nH]c1=O [Thymidine] : 3.00
O=c1cc[nH]c(=O)[nH]1 [Uracil] : 5.94
O=c1[nH]cnc2c1ncn2[C@@H]1O[C@H](CO)[C@@H](O)[C@H]1O [Inosine] : 4.55
O=c1ccn([C@H]2C[C@H](O)[C@@H](CO)O2)c(=O)[nH]1 [2’-Deoxyuridine] : 3.87
O=c1[nH]cc(F)c(=O)[nH]1 [5-FU, 5-fluorouracil] : 5.28
Nc1ncnc2c1ncn2[C@@H]1O[C@H](CO)[C@@H](O)[C@H]1O [Adenosine] : 3.95
Cc1cn([C@@H]2O[C@H](CO)[C@@H](O)[C@H]2O)c(=O)[nH]c1=O [5-Methyluridine] : 2.62
